- EXPERIMENT DESCRIPTION: Stat Signaling Pathway (AID 446);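 further: ME-180 cervical cancer cells given 40 pM IL-6 alongside compound; SIE-controlled beta-lactamase reporter measured as 460/530 nm FRET emission ratio; on the % scale 0 is the no-effect control and ±100 the full control effect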
- PARTICULARS: ME-180 (cervical carcinoma) SIE beta-lactamase reporter, IL-6 stimulated, 5 h; at 7.69 µM (top of the series) unless noted
- Protocol: NCGC Assay Overview: The IL-6/STAT signaling pathway was assayed in ME-180 cervical carcinoma cells by a beta-lactamase reporter gene controlled by a STAT Inducible Element (SIE). This reporter is induced by IL-6 at 40 pM AC50 and inhibited by the pan JAK inhibitor, 2-(1,1-Dimethylethyl)-9-fluoro-3,6-dihydro-7H-benz[h]-imidaz[4,5-f]isoquinolin-7-one, at approximately 10 nM AC50. Plated cells were incubated overnight and on the following day, stimulated with 40 pM IL-6 for 5 hrs. […]
Inconclusive results are not listed. The source made the active and inactive calls. The call rests on the fitted dose curve; in most records, active means well fitted curve in either direction with a large enough effect (not every such curve was filed as active); inconclusive means small, poorly fitted or top-dose-only effect, or another doubt; inactive means flat fitted curve, though single readings scatter.
The following compounds are shown together with reported activity, negative = inhibition values.
RECORDED ENDPOINT: activity, negative = inhibition

INSERT INTO results (molecular_string, measured_result) VALUES
  ('FC(F)(F)c1cc(CN2CCC3(CCNCC3)CC2)cc(C(F)(F)F)c1', '1.83% (inactive)'),
  ('Clc1ccccc1-c1cncnc1NCCN1CCOCC1', '7.26% (inactive)'),
  ('COCC(=O)N1CCC[C@@]2(CCN(Cc3cc(C(F)(F)F)cc(C(F)(F)F)c3)C2)C1', '9.45% (inactive)'),
  ('CN(C)Cc1ccccc1-c1ccc2ncnc(N3CCOCC3)c2c1', '12.4% (inactive)'),
  ('CS(=O)(=O)N1CCC2(CCCN(Cc3ccccc3)C2)CC1', '-2.17% (inactive)'),
  ('O=C(c1ccco1)N1CCC2(CC1)CN(c1ncccn1)C2', '2.05% (inactive)'),
  ('N#Cc1cccc(-c2nc(NCc3ccccc3)c3ccccc3n2)c1', '-8.06% (inactive)'),
  ('COc1ccccc1-c1ccc2ncnc(NCCNC(C)=O)c2c1', '-8.48% (inactive)'),
  ('Cn1c(=O)c(-c2ccc(F)cc2)nc2cnc(Nc3ccccc3)nc21', '-5.13% (inactive)'),
  ('COc1ccc(C(=O)N2CCC3(CCCN(c4ccncc4)C3)CC2)cc1', '8.4% (inactive)'),
  ('Cc1noc(C)c1C(=O)N1CCC[C@@]2(CCN(C(=O)Nc3cccc(C#N)c3)C2)C1', '-8.01% (inactive)'),
  ('COCC(=O)N1CCC2(CCCN(Cc3nccs3)C2)CC1', '-1.77% (inactive)'),
  ('O=C(Nc1cccc(F)c1)N1CC[C@@]2(CCCN(S(=O)(=O)c3ccccc3)C2)C1', '-7.95% (inactive)'),
  ('Cc1noc(C)c1-c1nccc(N2CCNCC2)n1', '-0.568% (inactive)'),
  ('Cn1c(=O)c(CCc2ccccc2)nc2cnc(Oc3ccccc3)nc21', '-2.24% (inactive)'),
  ('COc1ccccc1-c1ccc2ncnc(NCCN3CCOCC3)c2c1', '-7.65% (inactive)'),
  ('O=C(c1ccco1)N1CCC[C@@]2(CCN(c3ccccn3)C2)C1', '-0.822% (inactive)'),
  ('COc1ccc(NC(=O)N2CCCC3(CCN(C(=O)c4ccc(OC)cc4)CC3)C2)cc1', '-3.96% (inactive)'),
  ('COc1ccccc1CNc1ccnc(-c2cccc(C#N)c2)n1', '-11.8% (inactive)'),
  ('CN1CCN(c2ncc3nc(-c4cccc(C#N)c4)c(=O)n(C[C@H]4CCCO4)c3n2)CC1', '11.4% (inactive)'),
  ('CN(Cc1ccco1)c1cc(-c2ccccc2C(F)(F)F)ncn1', '3.49% (inactive)'),
  ('COc1ccccc1CN1CCC2(CC1)CCN(S(C)(=O)=O)CC2', '-4.05% (inactive)'),
  ('COc1cccc(Nc2ncc3nc(C)c(=O)n(-c4ccccc4)c3n2)c1', '-20.1% (inactive)'),
  ('O=C(c1csnn1)N1CCC2(CCCN(C(c3ccccc3)c3ccccc3)C2)CC1', '18.5% (inactive)'),
  ('COCCn1c(=O)c(-c2ccccc2)nc2cnc(N3CCN(C)CC3)nc21', '-8.44% (inactive)'),
  ('COc1ccccc1CNc1ncncc1-c1ccccc1C', '12.8% (inactive)'),
  ('COc1cccc(-c2cncnc2NCCc2cnc[nH]2)c1', '-17% (inactive)'),
  ('COc1ncc2nc(-c3cccs3)c(=O)n(C)c2n1', '20.2% (inactive)'),
  ('CCNc1ncc2nc(-c3cc(F)cc(F)c3)c(=O)n(C3CC3)c2n1', '28.9% (inactive)'),
  ('Cn1cccc1C(=O)N1CCC2(CCCN(C(=O)Nc3ccccc3)C2)CC1', '4.11% (inactive)'),
  ('Cc1nc2cnc(Oc3cccc(Cl)c3)nc2n(C2CC2)c1=O', '-13.7% (inactive)'),
  ('COc1ccc(-n2c(=O)c(-c3cccc(F)c3)nc3cncnc32)cc1', '-17.1% (inactive)'),
  ('O=c1c(-c2ccc(F)cc2)nc2cncnc2n1Cc1ccc(F)cc1', '-2.38% (inactive)'),
  ('Cc1noc(C)c1-c1nc(N2CCOCC2)c2ccccc2n1', '19.8% (inactive)'),
  ('COc1ccccc1CNc1ncnc2ccc(-c3ccc(N(C)C)cc3)cc12', '-7.61% (inactive)'),
  ('CCNc1ncc2nc(-c3cccc(C#N)c3)c(=O)n(C)c2n1', '30% (inactive)'),
  ('Cc1nc2cncnc2n(Cc2ccccc2Cl)c1=O', '-18.9% (inactive)'),
  ('COc1ccc(C(=O)N2CCC3(CC2)CCN(C(c2ccccc2)c2ccccc2)CC3)cc1', '-17.5% (inactive)'),
  ('N#CCCn1c(=O)c(CCc2ccccc2)nc2cnc(N3CCOCC3)nc21', '26.7% (inactive)'),
  ('c1csc(CNc2ccnc(-c3ccc4c(c3)OCO4)n2)c1', '-12.2% (inactive)'),
  ('Cc1nc2cnc(N(C)C)nc2n(Cc2cccs2)c1=O', '-2.49% (inactive)'),
  ('CNc1ccnc(-c2ccccc2C)n1', '6.43% (inactive)'),
  ('O=c1c(-c2cccc(F)c2)nc2cncnc2n1Cc1ccccc1', '-8.08% (inactive)'),
  ('c1ccc(-c2ccc(N3CCCC4(CCNCC4)C3)cc2)cc1', '-2.12% (inactive)'),
  ('COc1ccc(C(=O)N2CCC3(CC2)CCN(c2ccccc2)CC3)cc1', '-8.92% (inactive)'),
  ('COc1ccc(-c2nc3cnc(OC)nc3n(Cc3cccc(OC)c3)c2=O)cc1', '27.2% (inactive)');

Numbers sourced from PubChem BioAssay (NCATS).
